Assay: Solubility of crystalline form A
Assay type: physicochemical
Conditions: organic solvent or mixture; in methanol (organic solvent)
Property measured: solubility (mg/mL)
Unit mg/mL implied. Number only.

Could you please provide reported solubility for Cc1cc(Nc2ncc(Cl)c(Nc3ccccc3S(=O)(=O)C(C)C)n2)c(OC(C)C)cc1C1CCNCC1 [Form A] ? Thanks!
40

###

Assay: Solubility of crystalline form A
Format: physicochemical
Conditions: in water
Property measured: solubility (µg/mL)
Unit µg/mL implied. Number only.

Could you please provide reported solubility for Cc1cc(Nc2ncc(Cl)c(Nc3ccccc3S(=O)(=O)C(C)C)n2)c(OC(C)C)cc1C1CCNCC1 [Form A] ? Thanks!
210
